src = patent US11046699B2

# measured-on: GCN2 (Homo sapiens, UniProt Q9P2K8)
# Sequence (Q9P2K8 whole entry): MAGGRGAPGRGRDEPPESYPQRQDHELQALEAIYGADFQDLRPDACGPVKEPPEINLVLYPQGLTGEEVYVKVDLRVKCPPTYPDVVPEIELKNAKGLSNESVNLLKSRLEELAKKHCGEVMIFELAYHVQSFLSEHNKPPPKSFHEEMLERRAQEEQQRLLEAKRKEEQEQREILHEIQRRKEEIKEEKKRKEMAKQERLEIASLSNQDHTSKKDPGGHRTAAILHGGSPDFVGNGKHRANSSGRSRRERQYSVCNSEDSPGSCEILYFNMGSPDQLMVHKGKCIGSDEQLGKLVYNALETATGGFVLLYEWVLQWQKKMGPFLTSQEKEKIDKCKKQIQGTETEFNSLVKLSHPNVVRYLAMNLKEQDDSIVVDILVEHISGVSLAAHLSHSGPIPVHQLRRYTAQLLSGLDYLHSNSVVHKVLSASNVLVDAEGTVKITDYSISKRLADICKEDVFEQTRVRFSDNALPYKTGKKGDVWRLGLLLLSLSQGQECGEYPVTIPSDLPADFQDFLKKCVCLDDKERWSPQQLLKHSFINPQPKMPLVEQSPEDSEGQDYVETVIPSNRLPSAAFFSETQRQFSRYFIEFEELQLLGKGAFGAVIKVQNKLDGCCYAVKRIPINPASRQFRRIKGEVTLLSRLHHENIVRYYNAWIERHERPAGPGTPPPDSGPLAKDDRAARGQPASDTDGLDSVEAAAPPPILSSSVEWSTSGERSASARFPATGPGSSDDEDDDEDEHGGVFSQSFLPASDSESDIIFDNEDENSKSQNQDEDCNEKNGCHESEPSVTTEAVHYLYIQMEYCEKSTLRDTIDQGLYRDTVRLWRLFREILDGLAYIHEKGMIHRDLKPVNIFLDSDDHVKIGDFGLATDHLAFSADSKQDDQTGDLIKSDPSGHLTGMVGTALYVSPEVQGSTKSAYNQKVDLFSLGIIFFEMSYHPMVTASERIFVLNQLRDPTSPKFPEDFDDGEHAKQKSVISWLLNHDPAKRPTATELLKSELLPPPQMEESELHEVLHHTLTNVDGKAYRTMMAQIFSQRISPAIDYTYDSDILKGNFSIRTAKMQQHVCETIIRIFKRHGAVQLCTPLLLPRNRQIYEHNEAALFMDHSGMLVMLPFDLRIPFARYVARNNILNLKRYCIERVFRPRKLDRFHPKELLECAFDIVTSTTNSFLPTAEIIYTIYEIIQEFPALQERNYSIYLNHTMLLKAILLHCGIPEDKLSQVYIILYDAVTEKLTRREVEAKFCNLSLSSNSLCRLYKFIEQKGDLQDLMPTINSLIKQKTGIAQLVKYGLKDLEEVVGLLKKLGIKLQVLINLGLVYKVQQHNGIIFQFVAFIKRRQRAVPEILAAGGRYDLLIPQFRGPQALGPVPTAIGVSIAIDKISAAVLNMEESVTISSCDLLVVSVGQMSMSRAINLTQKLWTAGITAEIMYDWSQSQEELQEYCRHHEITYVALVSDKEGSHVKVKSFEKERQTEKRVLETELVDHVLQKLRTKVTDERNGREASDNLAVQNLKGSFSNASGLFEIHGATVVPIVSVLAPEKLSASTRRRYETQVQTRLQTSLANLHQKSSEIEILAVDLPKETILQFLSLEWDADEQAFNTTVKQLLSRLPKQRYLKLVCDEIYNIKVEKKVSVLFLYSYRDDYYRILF
# protocol-details: GCN2 enzymatic endpoint assay: phosphorylation of GFP-eIF2α measured by TR-FRET (Lanthascreen)
# Type: biochemical
# particulars: tested as described in Example 77; compound and/or hydrochloride, dihydrochloride or trifluoroacetic acid salt; read-out: IC 50 Activity
pIC50: −log10 of the molar value.
measured-property: pIC50

smiles-repr: O=C(NC[C@H]1COCCN1)[C@@H]1CC[C@@H](Nc2ncc3c(Br)nn(-c4cc(F)c5ncccc5c4)c3n2)C1
pIC50: 6.70 to 7.60
--
smiles-repr: CNC(=O)[C@]1(C)CC[C@@H](Nc2ncc3c(Br)nn(-c4ccc5c(c4)OCC(=O)N5CCO)c3n2)C1
pIC50: 6.70 to 7.60
--
smiles-repr: CNC(=O)[C@@]1(C)CC[C@@H](Nc2ncc3c(Br)nn(-c4ccc5ncc(CCO)cc5c4)c3n2)C1
pIC50: > 7.60

Please examine the following record next.
**Query** I have this molecule here, Cc1nnc(-c2ccc(-n3nc(Br)c4cnc(N[C@@H]5CC[C@@](C)(C(=O)NCC(F)F)C5)nc43)cc2)s1 , and I need its recorded pIC50.
**Result** 6.70 to 7.60
